measurementTarget: Induced myeloid leukemia cell differentiation protein Mcl-1 (Homo sapiens) (UniProt Q07820)
Sequence (Q07820 whole entry, looked up): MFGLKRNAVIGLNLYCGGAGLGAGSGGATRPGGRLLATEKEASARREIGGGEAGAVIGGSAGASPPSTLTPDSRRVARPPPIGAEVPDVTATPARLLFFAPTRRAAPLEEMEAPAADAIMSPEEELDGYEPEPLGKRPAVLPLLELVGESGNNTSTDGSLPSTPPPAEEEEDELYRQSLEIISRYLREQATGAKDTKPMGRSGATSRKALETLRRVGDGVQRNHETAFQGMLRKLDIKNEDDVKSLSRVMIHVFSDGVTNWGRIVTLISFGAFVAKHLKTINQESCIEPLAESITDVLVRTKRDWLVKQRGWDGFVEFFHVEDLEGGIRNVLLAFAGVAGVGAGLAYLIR
experimentDescription: disruptors of Mcl-1 and Noxa BH3 peptide – biochemical, TR-FRET, 1536-well, primary screen (AID 1022);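 note: His-tagged Mcl-1 with rhodamine Noxa BH3 peptide and terbium anti-His antibody; 0% = Mcl-1 plus Noxa peptide wells and 100% = peptide-only wells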
conditionSummary: TR-FRET Mcl-1/Noxa peptide binding, 2 h; at 21.7 µM
Hit rate of the full screen: of about 220,000 compounds, about 3,300 (1.5%) were called active.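 Rule for the calls: active = compounds that cut the protein-peptide binding signal by more than 50% relative to plate controls in a single-dose test; inactive = the rest.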 This is one part of a sample in which actives are shown more often than they occur.
Outcomes: Yes (active), No (inactive)

In [3]: df
Out[3]:
                                    compound  class
 0  O=C(CN1C(=O)/C(=C\c2ccccc2F)SC1=S)Nc1nc2ccccc2s1     No
 1  O=C(O)c1ccc(NC(=O)c2cn(-c3ccccc3)nc2-c2ccc(Cl)cc2)cc1     No
 2  Nc1c(C(=O)c2cccs2)sc2nsc(SCCN3CCCCC3)c12     No
 3                     Cc1cc(=O)[nH]c2nnnn12     No
 4  CC1=C/C(=N\S(=O)(=O)c2ccccc2)C(C(C)C)=CC1=O     No
 5  O=C(CSCC(=O)Nc1cccc([N+](=O)[O-])c1)Nc1ccccc1     No
 6          C=CCNC(=S)N1CCc2[nH]c3ccccc3c2C1     No
 7  CC(C)CCN1NC2(CCC(C)CC2)NC1=S (centres undefined)     No
 8  CCC(C)N1C(=S)SC(C)(C)C1N(O)C(=O)NC1CCCCC1 (centres undefined)     No
 9  Cc1ccc(N2C(=O)CC(Sc3ncn[nH]3)C2=O)cc1 (centres undefined)     No
10  O=c1cc(CO)oc(C(Nc2cccc(C(F)(F)F)c2)c2ccccn2)c1O (centres undefined)    Yes
11  O=[N+]([O-])c1ccc(N=Cc2c(O)ccc3ccccc23)cc1     No
12  Cc1nc(N)sc1N=Nc1c(C)n(C)n(-c2ccccc2)c1=O     No
13  CC(=O)c1c(C)[nH]c(=S)c(C#N)c1-c1ccc(F)cc1     No
14  Cc1ccc(C2Nc3ccccc3C(=O)N2CCN2CCNC2=O)cc1 (centres undefined)     No
15  Cc1ccc(-c2nn(-c3ccccc3)cc2/C=C/C(=O)Nc2cccc(S(N)(=O)=O)c2)cc1     No
16         FC(F)(F)c1cccc(Nc2ncnc3ccccc23)c1     No
17  CCOC(=O)c1c(CC(C)C)csc1/N=C/C1=C(O)CCCC1=O     No
18          C/C(=N/NC(=O)c1ccn(C)n1)c1ccncc1     No
19  COc1ccc(N2C(=O)CC(Sc3n[nH]c(-c4ccc(C)cc4)n3)C2=O)cc1 (centres undefined)     No
20          COc1ccc(OCCC(=O)c2ccc(OC)cc2)cc1     No
21           FC(F)(F)c1ccc(-n2cn[nH]c2=S)cc1     No
22  C=CCC(Nc1ccccc1)c1cccc(OC)c1OC (centres undefined)     No
23  COC(=O)N(NC(=O)C(O)(C(C)C)C(C)C)c1ccccc1     No

----------
measurementTarget: Induced myeloid leukemia cell differentiation protein Mcl-1 (Homo sapiens) (UniProt Q07820)
experimentDescription: disruptors of Mcl-1 and Noxa BH3 peptide – biochemical, TR-FRET, 1536-well, primary screen (AID 1022);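 note: His-tagged Mcl-1 with rhodamine Noxa BH3 peptide and terbium anti-His antibody; 0% = Mcl-1 plus Noxa peptide wells and 100% = peptide-only wells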
conditionSummary: TR-FRET Mcl-1/Noxa peptide binding, 2 h; at 21.7 µM; active compounds read high
Screen size: about 220,000 compounds; about 3,300 (1.5%) were called active. This is one part of a sample in which actives are shown more often than they occur.
valueType: inhibition (%)

                                   molecule   valuetype  number
0  Cc1ccc(C(=O)NNC2=Nc3cc([N+](=O)[O-])ccc3OC2)cc1  inhibition    8.97
1  O=C(CS(=O)(=O)c1ccc(C(F)(F)F)cn1)NNC(=O)c1ccccc1  inhibition   -2.05
2      COc1ccc(OC)c(Nc2nc3ccccc3n3cnnc23)c1  inhibition    16.9
3  Cn1cccc1/C=C1\SC(=S)N(NC(=O)c2ccc(Cl)cc2)C1=O  inhibition    18.5
4  COc1ccc(Cn2c(O)c(/C=C3/C=CC=N3)c(=O)[nH]c2=O)cc1  inhibition      25
5  C=CCNC(=O)CSc1nc2scc(-c3ccco3)c2c(=O)n1CC=C  inhibition    8.55

----------
measurementTarget: Induced myeloid leukemia cell differentiation protein Mcl-1 (Homo sapiens) (UniProt Q07820)
experimentDescription: disruptors of Mcl-1 and Noxa BH3 peptide – biochemical, TR-FRET, 1536-well, primary screen (AID 1022);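 note: His-tagged Mcl-1 with rhodamine Noxa BH3 peptide and terbium anti-His antibody; 0% = Mcl-1 plus Noxa peptide wells and 100% = peptide-only wells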
conditionSummary: TR-FRET Mcl-1/Noxa peptide binding, 2 h; at 21.7 µM; active compounds read high
Among all 220,000 compounds or so, about 3,300 (1.5%) were called active. The sample as a whole holds a higher share of actives than the screen did.
As shown below, each of these compounds has a reported inhibition value.
valueType: inhibition (%)

>>> print(df.to_string())
                                    compound   valuetype  number
 0          O=C(Nc1ccccc1)O/N=C1/CCCc2occc21  inhibition    6.55
 1  CC(NCc1ccccc1OC1CCCC1)c1ccccc1 (stereo unspecified)  inhibition   -3.22
 2  COc1ccc(OCC(O)CNCCNc2nccc(C(F)(F)F)n2)cc1 (stereo unspecified)  inhibition   -8.04
 3              COc1ccccc1Cn1c(CO)nc2ccccc21  inhibition    7.12
 4  C=CCn1c2ccccc2c2nnc(SCc3[nH]c(=O)[nH]c3C(=O)CCCCC(=O)OCC)nc21  inhibition    52.5
 5      Cn1cnc([N+](=O)[O-])c1Sc1n[nH]c(N)n1  inhibition    3.28
 6  Nc1c(N(CCO)C(=O)C2CCCCC2)c(=O)[nH]c(=O)n1Cc1ccccc1  inhibition    24.7
 7   N#Cc1c(C(F)(F)F)cc(-c2cccs2)nc1N1CCCCC1  inhibition   -6.66
 8  Cc1ccc(OS(=O)(=O)c2ccc(-c3csc(C)n3)s2)c(C)c1  inhibition    10.9
 9  Cc1c(NC(=O)CN2C(=O)C(=O)N(Cc3ccccc3)C2=O)c(=O)n(-c2ccccc2)n1C  inhibition    8.51
10  COc1ccc(COCC(O)CN2CCC(C(N)=O)CC2)cc1 (stereo unspecified)  inhibition    4.43

----------
measurementTarget: Induced myeloid leukemia cell differentiation protein Mcl-1 (Homo sapiens)
experimentDescription: disruptors of Mcl-1 and Noxa BH3 peptide – biochemical, TR-FRET, 1536-well, primary screen (AID 1022);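 note: His-tagged Mcl-1 with rhodamine Noxa BH3 peptide and terbium anti-His antibody; 0% = Mcl-1 plus Noxa peptide wells and 100% = peptide-only wells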
conditionSummary: TR-FRET Mcl-1/Noxa peptide binding, 2 h; at 21.7 µM; active compounds read high
Among all 220,000 compounds or so, about 3,300 (1.5%) were called active. Only a selection was taken, and actives are over-represented in it overall.
As shown below, each of these compounds has a reported inhibition value.
valueType: inhibition (%)

In [3]: df
Out[3]:
                                   compound                         measurementtarget   valuetype  unitsymbol  number
0  C=CCN1CC(C)/C(=N\O)CC1C (stereo not given)  Induced myeloid leukemia cell differentiation protein Mcl-1 (Homo sapiens)  inhibition           %     9.5
1  COc1ccc(/C=C/C(=O)Nc2ccc(C)cc2)cc1S(=O)(=O)N1CCOCC1  Induced myeloid leukemia cell differentiation protein Mcl-1 (Homo sapiens)  inhibition           %    8.12
2  Cc1nn(Cc2ccc(Cl)cc2)c(Cl)c1/C=N/NC(=O)CNc1ccccc1F  Induced myeloid leukemia cell differentiation protein Mcl-1 (Homo sapiens)  inhibition           %    5.98
3  CN1CCc2ccccc2C1Cc1ccccc1NC(=O)c1sc2ccccc2c1Cl (stereo not given)  Induced myeloid leukemia cell differentiation protein Mcl-1 (Homo sapiens)  inhibition           %   -2.87
4              Cc1ccc(Nc2nc(Cl)c(C=O)s2)cc1  Induced myeloid leukemia cell differentiation protein Mcl-1 (Homo sapiens)  inhibition           %    10.2
5  O=S(=O)([N-]c1nc2ccccc2nc1-[n+]1ccc(Cc2ccccc2)cc1)c1ccc(Br)s1  Induced myeloid leukemia cell differentiation protein Mcl-1 (Homo sapiens)  inhibition           %    15.5
6    O=C(NC1CC1)c1ccc2c(c1)NC(=O)c1ccccc1S2  Induced myeloid leukemia cell differentiation protein Mcl-1 (Homo sapiens)  inhibition           %   -14.5
7  CC(=O)N1C(=O)/C(=C2\SC(=S)N(NC(=O)c3ccc(O)cc3)C2=O)c2ccccc21  Induced myeloid leukemia cell differentiation protein Mcl-1 (Homo sapiens)  inhibition           %    94.5
8  CC(C)c1ccc2c(c1)c(SC(C)(C)C)c(CC(C)(C)C(=O)O)n2Cc1ccc(Cl)cc1  Induced myeloid leukemia cell differentiation protein Mcl-1 (Homo sapiens)  inhibition           %    68.7
9       O=C(Nc1ccccc1)Nc1nnc(COc2ccccc2F)s1  Induced myeloid leukemia cell differentiation protein Mcl-1 (Homo sapiens)  inhibition           %    23.7
